Origin of measurements: patent US20220162261A1

Answer each item with its documented pIC50.
# System under test: T1, human α4β7 integrin on cells (human, UniProt P13612 34-1032; P26010 20-798)
# T1 construct: whole, on cells; also called α4β7 cell (Hu); RPMI8866 cells
# Experiment notes: RPMI8866 cell adhesion to MAdCAM-1
pIC50: −log10 of the molar value. Bridge positions count the residues as written; N and C are the ends. Square brackets hold non-standard residues; d marks the D form. Ends that are not written are not given here. Phe(4-COOH) = N[C@@H](Cc1ccc(C(=O)O)cc1)C(=O)O; Phe(4-tBu) = CC(C)(C)c1ccc(C[C@H](N)C(=O)O)cc1; Phe(2,4-Cl2) = N[C@@H](Cc1ccc(Cl)cc1Cl)C(=O)O; Phe(4-CN) = N#Cc1ccc(C[C@H](N)C(=O)O)cc1; NMeR = CN[C@@H](CCCNC(=N)N)C(=O)O; hPhe = N[C@@H](CCc1ccccc1)C(=O)O; β3hE = N[C@@H](CCC(=O)O)CC(=O)O; Pen = CC(C)(S)[C@H](N)C(=O)O

Ask: pIC50 for Ac-[Pen][NMeR]SDIL[Pen][Phe(4-tBu)][β3hE][dK]-NH2 (disulfide 1-7; not fully specified (residue 10); printed as (Ac Pen N-Me-R S D I L Pen F(4-tBu) b-H-E k NH2)2 IDA, disulfide Pen-Pen; also: homodimer: two subunits joined by IDA linker) [SEQ ID NO: 186] ?
Result: < 7.00

Ask: Do the same for Ac-[Pen][NMeR]SDTL[Pen][hPhe]E[dK]-NH2 (disulfide 1-7; not fully specified (residue 10); printed as (Ac Pen N-Me-R S D T L Pen HPhe E k NH2)2 DIG, disulfide Pen-Pen; also: dimer, two subunits joined by DIG linker) [SEQ ID NO: 45] please
Result: < 7.60

Ask: Do the same for Ac-[Pen][NMeR]SDTL[Pen]WE[dK]-OH (disulfide 1-7; not fully specified (residue 10); printed as (Ac Pen N-Me-R S D T L Pen W E k OH)2 DIG, disulfide Pen-Pen; also: homodimer: two subunits linked by DIG via D-Lys10 side chain) [SEQ ID NO: 78] please
Result: ≥ 8.00

Ask: Do the same for Ac-[Pen][NMeR]SDTL[Pen][Phe(4-tBu)]-OH (disulfide 1-7; SMILES CC(=O)N[C@@H]1C(=O)N(C)[C@@H](CCCNC(=N)N)C(=O)N[C@@H](CO)C(=O)N[C@@H](CC(=O)O)C(=O)N[C@@H]([C@@H](C)O)C(=O)N[C@@H](CC(C)C)C(=O)N[C@H](C(=O)N[C@@H](Cc2ccc(C(C)(C)C)cc2)C(=O)O)C(C)(C)SSC1(C)C) [SEQ ID NO: 151] please
Result: < 7.30

Ask: Do the same for Ac-[Pen][NMeR]SDTL[Pen]W[dE][dK](Ac) (disulfide 1-7) [SEQ ID NO: 66] please
Result: < 5.00

Ask: Do the same for Ac-[Pen][NMeR]SDTL[Pen][Phe(2,4-Cl2)][dE][dK]-NH2 (disulfide 1-7; not fully specified (residue 10); also: homodimer: two subunits joined by DIG linker, F(2,4-ci) as printed) [SEQ ID NO: 101] please
Result: < 7.30

Ask: Do the same for Ac-[Pen][NMeR]SDTL[Pen]Y[dE][dK]-NH2 (disulfide 1-7; not fully specified (residue 10); printed as (Ac Pen N-Me-R S D T L Pen Y e k NH2)2 DIG, disulfide Pen-Pen; also: homodimer: two subunits joined by DIG linker) [SEQ ID NO: 123] please
Result: < 7.30

Ask: Do the same for Ac-[Pen][NMeR]SDTL[Pen][Phe(4-tBu)][β3hE][dK](4,4,4‑trifluorobutyryl) (disulfide 1-7) [SEQ ID NO: 169] please
Result: < 8.00

Ask: Do the same for Ac-[Pen][NMeR]SDTL[Pen][Phe(4-tBu)][β3hE][dK]-NH2 (disulfide 1-7; not fully specified (residue 10); printed as (Ac Pen N-Me-R S D T L Pen F(4tBu) b-H-E k NH2)2 DIG, disulfide Pen-Pen; also: homodimer, two subunits joined by DIG linker, the second listing is the acetate salt) [SEQ ID NO: 132] please
Result: ≥ 8.00

Ask: Do the same for Ac-[Pen][NMeR]SDTL[Pen][Phe(4-COOH)]E[dK]-NH2 (disulfide 1-7; not fully specified (residue 10); printed as (Ac Pen N-Me-R S D T L Pen F(4-COOH) E k NH2)2 DIG, disulfide Pen-Pen; also: homodimer: two subunits joined by DIG linker) [SEQ ID NO: 129] please
Result: ≥ 8.00

Ask: Do the same for Ac-[Pen][NMeR]SDTL[Pen][Phe(4-CN)][β3hE][dK]-NH2 (disulfide 1-7; not fully specified (residue 10); printed as (Ac Pen N-Me-R S D T L Pen F(4-CN) b-H-E k NH2)2 DIG, disulfide Pen-Pen; also: homodimer, two subunits joined by DIG linker) [SEQ ID NO: 139] please
Result: ≥ 8.00
